biological target: human P2X7 receptor (Homo sapiens, UniProt Q99572); assay: Radioligand saturation binding assay with [^123I]TZ6019; details: read-out: Kd (saturation binding); HEK-293-hP2X7R cells, one-site fit; n = 3
Sequence (Q99572 whole entry): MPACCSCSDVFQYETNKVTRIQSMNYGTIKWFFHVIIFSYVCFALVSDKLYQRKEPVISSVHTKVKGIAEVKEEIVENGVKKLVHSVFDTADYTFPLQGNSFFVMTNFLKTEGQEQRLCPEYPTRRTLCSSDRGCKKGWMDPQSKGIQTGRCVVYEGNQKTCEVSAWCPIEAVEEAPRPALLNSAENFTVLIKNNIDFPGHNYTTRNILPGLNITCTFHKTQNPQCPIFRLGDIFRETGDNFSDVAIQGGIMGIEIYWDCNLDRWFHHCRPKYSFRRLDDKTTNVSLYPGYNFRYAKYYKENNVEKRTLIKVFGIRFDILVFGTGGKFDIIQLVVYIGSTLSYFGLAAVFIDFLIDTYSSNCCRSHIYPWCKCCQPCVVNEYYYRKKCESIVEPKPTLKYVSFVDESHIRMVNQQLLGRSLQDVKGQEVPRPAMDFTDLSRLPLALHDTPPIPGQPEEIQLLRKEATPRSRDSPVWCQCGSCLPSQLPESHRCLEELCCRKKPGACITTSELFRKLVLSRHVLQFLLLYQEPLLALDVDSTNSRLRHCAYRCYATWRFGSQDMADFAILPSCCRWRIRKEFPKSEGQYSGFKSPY
measured parameter: pKd
// pKd is dimensionless: -log10 of concentration (M)

Q: Quick one: pKd for O=C(NCc1cccc(C(F)(F)F)c1Cl)[C@@H]1CCC(=O)N1C/C=C/I [[^123I]TZ6019] ?
Ans: 7.71

====

target: human P2X7 receptor (Homo sapiens); experiment: Ethidium bromide uptake fluorescence assay; format: cell-based
measured parameter: IC50 (nM)
Give the quantity in nM, number only.

Q: Quick one: IC50 for CN1C(=O)CC[C@H]1C(=O)NCc1cccc(C(F)(F)F)c1Cl [GSK1482160, reference compound] ?
Ans: 2.1
